Source: ChEMBL document CHEMBL1155834

MIC reference
Test system: Micrococcus luteus
assayComment: Antibacterial activity against Micrococcus luteus ATCC 9341 after 18 hrs
Assay type: functional
assayContext: ATCC 9341, 18 h
Quick note: give the figure in µg/mL, leave out the unit.

The examples below pair each entry with its known result.
C=CC1=C(C)C(=O)C=C2[C@]1(OO)CC[C@H](C(=C)C)[C@@]2(C)CCC(=O)OC | 12.5
C=CCc1ccc(O)c(-c2cc(CC=C)ccc2O)c1 | 6.25

Shift focus to the following entry.
Form: compound = COc1cc2c(cc(OC)c3cc(C)c(O)cc32)c(C)c1O ; MIC = 12.5

---

MIC reference
System: Staphylococcus epidermidis
assayComment: Antibacterial activity against Staphylococcus epidermidis ATCC 12228 after 18 hrs
Type: functional
assayContext: ATCC 12228, 18 h
Quick note: give the figure in µg/mL, leave out the unit.

The examples below pair each entry with its known result.
COc1cc2c(cc(OC)c3cc(C)c(O)cc32)c(C)c1O | 6.25
C=CCc1ccc(O)c(-c2cc(CC=C)ccc2O)c1 | 6.25

Form: molecule = C=Cc1c(C)c(O)cc2c1CC[C@H](C(=C)C)[C@@]2(C)CCC(=O)OC ; MIC = 6.25

Form: molecule = C=CC1=C(C)C(=O)C=C2[C@]1(OO)CC[C@H](C(=C)C)[C@@]2(C)CCC(=O)OC ; MIC = 25
